meta.source: patent US7157241B2

experimentalSystem: DPRP-1 (Homo sapiens)
Construct: DNA fragments encoding the full-length polypeptide DPRP-1 were amplified using PCR oligonucleotide primers; made in house; host or cells: PEAK or COS-1 cells, transient transfection
experimentDescription: Substrate specificity, DPRP-1
Assay type: biochemical
measurementConditions: substrate 125 μM, 30-minute incubation with enzyme
Peptide text beside a SMILES is read from it. * marks the point of attachment. pNA = O=[N+]([O-])c1ccc(N*)cc1; AMC = Cc1cc(=O)oc2cc(N*)ccc12
measurementLabel: % Change in Fluorescence at 30 minutes DPRP-1 (%)

(A) C[C@H](NC(=O)[C@@H](N)CCCCN)C(=O)Nc1ccc([N+](=O)[O-])cc1 [Lys-Ala-pNA] (H-Lys-Ala-pNA)
(B) C[C@H](N)C(=O)N[C@@H](Cc1ccccc1)C(=O)N1CCC[C@H]1C(=O)Nc1ccc([N+](=O)[O-])cc1 [Ala-Phe-Pro-pNA] (H-Ala-Phe-Pro-pNA)
(C) Cc1cc(=O)oc2cc(NC(=O)[C@@H]3CCCN3C(=O)[C@H](C)N)ccc12 [Ala-Pro-AMC] (H-Ala-Pro-{AMC})
Thanks in advance: please rank these 3 entries by % Change in Fluorescence at 30 minutes DPRP-1, highest to lowest. Provide your answer as the labels ordered per the instruction.
C, A, B
(C: 239.0%, A: 2.5%, B: −4%)

---

experimentalSystem: DPRP-2 (Homo sapiens)
Construct: DNA fragments encoding the full length polypeptide DPRP-2 were amplified using PCR oligonucleotide primers; made in house; host or cells: PEAK or COS-1 cells, transient transfection
Sequence (Q86TI2 whole entry, the tested form may be a part): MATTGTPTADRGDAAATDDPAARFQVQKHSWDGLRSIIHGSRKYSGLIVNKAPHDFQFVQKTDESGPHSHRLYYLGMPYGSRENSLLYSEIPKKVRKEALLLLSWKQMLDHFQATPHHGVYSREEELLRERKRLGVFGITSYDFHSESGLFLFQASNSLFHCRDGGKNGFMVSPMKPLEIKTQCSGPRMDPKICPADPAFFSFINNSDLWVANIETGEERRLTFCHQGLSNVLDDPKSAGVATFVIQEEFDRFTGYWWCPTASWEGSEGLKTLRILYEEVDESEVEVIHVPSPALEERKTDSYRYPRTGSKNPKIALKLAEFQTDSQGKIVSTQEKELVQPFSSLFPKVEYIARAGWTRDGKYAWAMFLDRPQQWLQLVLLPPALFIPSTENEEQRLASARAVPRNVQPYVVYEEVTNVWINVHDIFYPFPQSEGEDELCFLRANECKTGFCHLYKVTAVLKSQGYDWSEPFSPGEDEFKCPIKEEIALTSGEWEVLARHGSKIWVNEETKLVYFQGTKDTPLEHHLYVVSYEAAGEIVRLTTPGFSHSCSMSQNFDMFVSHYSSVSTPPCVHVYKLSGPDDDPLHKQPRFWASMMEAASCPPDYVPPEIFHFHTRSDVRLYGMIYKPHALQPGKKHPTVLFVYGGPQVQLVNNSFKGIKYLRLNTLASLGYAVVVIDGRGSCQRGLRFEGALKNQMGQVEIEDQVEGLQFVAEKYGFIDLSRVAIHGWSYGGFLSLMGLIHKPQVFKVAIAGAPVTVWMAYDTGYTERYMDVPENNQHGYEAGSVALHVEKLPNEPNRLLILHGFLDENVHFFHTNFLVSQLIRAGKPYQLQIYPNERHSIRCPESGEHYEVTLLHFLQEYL
experimentDescription: Substrate specificity, DPRP-2
Assay type: biochemical
measurementConditions: substrate 125 μM, 30-minute incubation with enzyme
Peptide text beside a SMILES is read from it. * marks the point of attachment. pNA = O=[N+]([O-])c1ccc(N*)cc1; AMC = Cc1cc(=O)oc2cc(N*)ccc12
measurementLabel: % Change in Fluorescence at 30 minutes DPRP-2 (%)

Example cases with answers are listed next.
molecule | resultUnit | assayResult
Cc1cc(=O)oc2cc(NC(=O)[C@@H]3CCCN3C(=O)[C@H](C)N)ccc12 [Ala-Pro-AMC] (H-Ala-Pro-{AMC}) | % | 127.5
Cc1cc(=O)oc2cc(NC(=O)[C@@H]3CCCN3C(=O)CN)ccc12 [Gly-Pro-AMC] (H-Gly-Pro-{AMC}) | % | 205.0
O=C(Nc1ccc([N+](=O)[O-])cc1)[C@@H]1CCCN1 [Pro-pNA] | % | −2.5
C[C@H](N)C(=O)N1CCC[C@H]1C(=O)Nc1ccc([N+](=O)[O-])cc1 [Ala-Pro-pNA] (H-Ala-Pro-pNA) | % | 44.0

(a) C[C@H](N)C(=O)N[C@@H](Cc1ccccc1)C(=O)N1CCC[C@H]1C(=O)Nc1ccc([N+](=O)[O-])cc1 [Ala-Phe-Pro-pNA] (H-Ala-Phe-Pro-pNA)
(b) C[C@H](NC(=O)[C@@H](N)CCCCN)C(=O)Nc1ccc([N+](=O)[O-])cc1 [Lys-Ala-pNA] (H-Lys-Ala-pNA)
Field: entry with larger % Change in Fluorescence at 30 minutes DPRP-2 (options a / b ). // return label of chosen record
b

---

experimentalSystem: DPRP-1 (Homo sapiens, UniProt Q6V1X1)
Construct: DNA fragments encoding the full-length polypeptide DPRP-1 were amplified using PCR oligonucleotide primers; made in house; host or cells: PEAK or COS-1 cells, transient transfection
Sequence (Q6V1X1 17-898): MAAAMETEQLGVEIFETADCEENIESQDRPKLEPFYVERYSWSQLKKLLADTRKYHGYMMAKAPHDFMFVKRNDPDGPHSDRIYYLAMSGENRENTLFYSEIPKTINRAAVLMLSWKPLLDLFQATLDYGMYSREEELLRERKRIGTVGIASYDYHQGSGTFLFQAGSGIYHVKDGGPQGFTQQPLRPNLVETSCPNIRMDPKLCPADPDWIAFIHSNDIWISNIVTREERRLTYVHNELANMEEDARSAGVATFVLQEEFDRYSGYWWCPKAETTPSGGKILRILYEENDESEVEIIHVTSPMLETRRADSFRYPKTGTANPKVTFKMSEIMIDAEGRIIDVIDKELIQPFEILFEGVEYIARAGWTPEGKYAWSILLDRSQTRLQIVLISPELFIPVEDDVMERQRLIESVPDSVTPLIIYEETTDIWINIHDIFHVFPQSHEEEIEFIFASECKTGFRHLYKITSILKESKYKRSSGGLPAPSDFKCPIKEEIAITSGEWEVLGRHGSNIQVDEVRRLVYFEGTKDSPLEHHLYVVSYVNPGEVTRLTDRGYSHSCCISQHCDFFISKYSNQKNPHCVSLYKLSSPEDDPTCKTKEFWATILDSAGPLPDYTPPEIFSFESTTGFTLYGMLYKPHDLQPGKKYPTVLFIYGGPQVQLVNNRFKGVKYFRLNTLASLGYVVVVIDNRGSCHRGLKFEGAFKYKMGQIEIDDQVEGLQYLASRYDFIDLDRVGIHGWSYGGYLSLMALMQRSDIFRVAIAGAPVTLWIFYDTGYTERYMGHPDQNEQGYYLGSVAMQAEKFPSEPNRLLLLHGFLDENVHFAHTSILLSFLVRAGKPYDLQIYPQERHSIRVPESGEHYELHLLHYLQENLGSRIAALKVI
experimentDescription: Substrate specificity, DPRP-1
Assay type: biochemical
measurementConditions: substrate 125 μM, 30-minute incubation with enzyme
Experimental: In addition to Ala-Pro-AMC, additional substrates tested also confirmed that DPRP-1 and DPRP-2 are dipeptidyl peptidases. The data were derived by determining the fluorescence change following a 30-minute incubation of the substrates (125 μM) with enzymes as a percentage of the fluorescence measured at Ala-Pro-AMC and Gly-Pro-AMC were the only good substrates among those tested.
Peptide text beside a SMILES is read from it. * marks the point of attachment. pNA = O=[N+]([O-])c1ccc(N*)cc1; AMC = Cc1cc(=O)oc2cc(N*)ccc12
measurementLabel: % Change in Fluorescence at 30 minutes DPRP-1 (%)

Example cases with answers are listed next.
compound | assayResult
Cc1cc(=O)oc2cc(NC(=O)[C@@H]3CCCN3C(=O)CN)ccc12 [Gly-Pro-AMC] (H-Gly-Pro-{AMC}) | 341.5
C[C@H](N)C(=O)N1CCC[C@H]1C(=O)Nc1ccc([N+](=O)[O-])cc1 [Ala-Pro-pNA] (H-Ala-Pro-pNA) | 45.5

(1) NCC(=O)N[C@@H](CCCN=C(N)N)C(=O)Nc1ccc([N+](=O)[O-])cc1 [Gly-Arg-pNA] (H-Gly-Arg-pNA)
(2) O=C(Nc1ccc([N+](=O)[O-])cc1)[C@@H]1CCCN1 [Pro-pNA]
// select label with min value of measured % Change in Fluorescence at 30 minutes DPRP-1 from [ 1 , 2 ] // return label of chosen record
1

---

experimentalSystem: DPPIV (Homo sapiens)
Sequence (P27487 whole entry): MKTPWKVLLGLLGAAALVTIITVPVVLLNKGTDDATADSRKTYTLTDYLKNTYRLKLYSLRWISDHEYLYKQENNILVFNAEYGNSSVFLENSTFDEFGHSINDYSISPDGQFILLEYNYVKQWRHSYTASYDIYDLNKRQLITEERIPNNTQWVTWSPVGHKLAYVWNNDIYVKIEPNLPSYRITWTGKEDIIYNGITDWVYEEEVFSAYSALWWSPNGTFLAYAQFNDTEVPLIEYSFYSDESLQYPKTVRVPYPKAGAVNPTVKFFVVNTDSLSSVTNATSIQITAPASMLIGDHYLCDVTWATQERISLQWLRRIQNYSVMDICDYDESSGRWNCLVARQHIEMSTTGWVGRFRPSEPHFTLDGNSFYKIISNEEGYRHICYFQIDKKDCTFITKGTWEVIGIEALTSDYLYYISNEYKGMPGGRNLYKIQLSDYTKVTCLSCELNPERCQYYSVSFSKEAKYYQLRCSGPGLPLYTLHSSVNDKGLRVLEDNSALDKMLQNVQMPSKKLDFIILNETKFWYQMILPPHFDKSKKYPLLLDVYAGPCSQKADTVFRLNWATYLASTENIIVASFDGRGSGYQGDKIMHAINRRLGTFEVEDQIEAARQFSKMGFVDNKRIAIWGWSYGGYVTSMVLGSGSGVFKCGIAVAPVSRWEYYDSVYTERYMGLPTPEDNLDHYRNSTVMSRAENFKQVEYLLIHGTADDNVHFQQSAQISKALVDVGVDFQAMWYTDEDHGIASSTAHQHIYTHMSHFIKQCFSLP
experimentDescription: Substrate specificity, DPPIV
Format: biochemical
measurementConditions: substrate 125 μM, 30-minute incubation with enzyme
Description: In addition to Ala-Pro-AMC, additional substrates tested also confirmed that DPRP-1 and DPRP-2 are dipeptidyl peptidases. The data were derived by determining the fluorescence change following a 30-minute incubation of the substrates (125 μM) with enzymes as a percentage of the fluorescence measured at Ala-Pro-AMC and Gly-Pro-AMC were the only good substrates among those tested.
Peptide text beside a SMILES is read from it. * marks the point of attachment. pNA = O=[N+]([O-])c1ccc(N*)cc1; AMC = Cc1cc(=O)oc2cc(N*)ccc12
measurementLabel: % Change in Fluorescence at 30 minutes DPPIV (%)

compound | assayResult
Cc1cc(=O)oc2cc(NC(=O)[C@@H]3CCCN3C(=O)[C@H](C)N)ccc12 [Ala-Pro-AMC] (H-Ala-Pro-{AMC}) | 379.0

(P) NCC(=O)N[C@@H](CCCN=C(N)N)C(=O)Nc1ccc([N+](=O)[O-])cc1 [Gly-Arg-pNA] (H-Gly-Arg-pNA)
(Q) C[C@H](N)C(=O)N[C@@H](Cc1ccccc1)C(=O)N1CCC[C@H]1C(=O)Nc1ccc([N+](=O)[O-])cc1 [Ala-Phe-Pro-pNA] (H-Ala-Phe-Pro-pNA)
(R) C[C@H](N)C(=O)N1CCC[C@H]1C(=O)Nc1ccc([N+](=O)[O-])cc1 [Ala-Pro-pNA] (H-Ala-Pro-pNA)
(S) C[C@H](NC(=O)[C@@H](N)CCCCN)C(=O)Nc1ccc([N+](=O)[O-])cc1 [Lys-Ala-pNA] (H-Lys-Ala-pNA)
Please produce an ascending ranking of these compounds based on % Change in Fluorescence at 30 minutes DPPIV. Provide your answer as the labels ordered per the instruction.
P, S, Q, R
(P: 0.0%, S: 0.5%, Q: 2.0%, R: 29.5%)

(P) O=C(Nc1ccc([N+](=O)[O-])cc1)[C@@H]1CCCN1
(Q) Cc1cc(=O)oc2cc(NC(=O)[C@@H]3CCCN3C(=O)CN)ccc12 [Gly-Pro-AMC] (H-Gly-Pro-{AMC})
// select label with min value of measured % Change in Fluorescence at 30 minutes DPPIV from [ P , Q ] // return label of chosen record
P
